# Condition context: in ethanol, 290.65 K
Property measured: solubility (mole fraction)

In: Any idea what solubility (mole fraction) was measured for Clc1ccc2c(c1)Nc1ccccc1S2 ?
Out: 0.00486

###

# Condition context: in acetone, 305.65 K
Property measured: solubility (mole fraction)
Please respond with just the number, no unit label.

In: # input molecule: Clc1ccc2c(c1)Nc1ccccc1S2 ; wanted: its solubility (mole fraction)
Out: 0.0443

###

# Condition context: in 2-butanone, 290.65 K
Property measured: solubility (mole fraction)
Please give only the number in your answer, with no unit.

In: For the compound Clc1ccc2c(c1)Nc1ccccc1S2 , what solubility (mole fraction) is on record?
Out: 0.0402

Data origin, for the record: BigSolDB 2.1
